biological target: HLA-C*04:01; assay: thermal melting temperature (Tm) of peptide-HLA complex; higher = more thermostable pHLA complex; conditions: C1R-B*07:02
// values below are reported thermal melting temperature
outcome-measure: thermal melting temperature (°C)

record_sequence=RFDESMQVF unit_text=°C experimental_value=58.5
record_sequence=IYDEVVKL unit_text=°C experimental_value=51.6
record_sequence=VLDDKLVFV unit_text=°C experimental_value=48.9
record_sequence=VFDEAIRAV unit_text=°C experimental_value=61.5
record_sequence=AWDKEPVLV unit_text=°C experimental_value=57.6
record_sequence=QLDPLVVEL unit_text=°C experimental_value=46.9
record_sequence=SFDPSRTF unit_text=°C experimental_value=52.8
record_sequence=VFDEAVRV unit_text=°C experimental_value=50.6
record_sequence=SYDLANRDF unit_text=°C experimental_value=57.8
record_sequence=SFDDTNEKF unit_text=°C experimental_value=48.2
record_sequence=VFDPVTKL unit_text=°C experimental_value=48.6
record_sequence=HYDPATEEF unit_text=°C experimental_value=58.2
record_sequence=TFDVSPKAV unit_text=°C experimental_value=48.1
record_sequence=FYPPDPAQL unit_text=°C experimental_value=51.5
record_sequence=HWDPQEVTL unit_text=°C experimental_value=57.7
record_sequence=TFDLTVVSY unit_text=°C experimental_value=61.8
record_sequence=FFEEFGKL unit_text=°C experimental_value=46.5
